# key: entry, value: binding signal
Biological target: dAsCas12a Ultra (Acidaminococcus sp., UniProt U2UMQ6 1-1307, M537R;F870L;D908A;E993A;D1235A)
Assay: Spec-seq (native PAGE EMSA with sequencing of bound and unbound); 25 mM Tris-HCl pH 7.4, 150 mM KCl, 5 mM MgCl2, 10% glycerol, 1 mM DTT, 40 ng/uL salmon sperm DNA; 400 nM Cas12a, 480 nM crRNA, 50 nM library, 37 C 1 h; native PAGE at room temperature; high values mean tight binding
Details: protein: recombinant

{"columns": ["binder", "binding signal [lnKA]"],
 "data": [
  ["CTTT (dsDNA) DNA 1: GCTATCTAGTGCTCAGTACGCACTGCTTTAGGAAACTTCTGGCAGGACCAGGTCATGAGATCGGAAGAGCACACGTCTGAACTCCAGTCA DNA 2: TGACTGGAGTTCAGACGTGTGCTCTTCCGATCTCATGACCTGGTCCTGCCAGAAGTTTCCTAAAGCAGTGCGTACTGAGCACTAGATAGC RNA: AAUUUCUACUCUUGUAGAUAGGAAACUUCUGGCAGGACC", -7.25],
  ["TTAG (dsDNA) DNA 1: GCTATCTAGTGCTCAGTACGCACTGTTAGAGGAAACTTCTGGCAGGACCAGGTCATGAGATCGGAAGAGCACACGTCTGAACTCCAGTCA DNA 2: TGACTGGAGTTCAGACGTGTGCTCTTCCGATCTCATGACCTGGTCCTGCCAGAAGTTTCCTCTAACAGTGCGTACTGAGCACTAGATAGC RNA: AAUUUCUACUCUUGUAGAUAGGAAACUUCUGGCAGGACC", -8.15],
  ["TTAC (dsDNA) DNA 1: GCTATCTAGTGCTCAGTACGCACTGTTACAGGAAACTTCTGGCAGGACCAGGTCATGAGATCGGAAGAGCACACGTCTGAACTCCAGTCA DNA 2: TGACTGGAGTTCAGACGTGTGCTCTTCCGATCTCATGACCTGGTCCTGCCAGAAGTTTCCTGTAACAGTGCGTACTGAGCACTAGATAGC RNA: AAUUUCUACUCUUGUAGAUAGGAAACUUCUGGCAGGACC", -7.13],
  ["CCTA (dsDNA) DNA 1: GCTATCTAGTGCTCAGTACGCACTGCCTAAGGAAACTTCTGGCAGGACCAGGTCATGAGATCGGAAGAGCACACGTCTGAACTCCAGTCA DNA 2: TGACTGGAGTTCAGACGTGTGCTCTTCCGATCTCATGACCTGGTCCTGCCAGAAGTTTCCTTAGGCAGTGCGTACTGAGCACTAGATAGC RNA: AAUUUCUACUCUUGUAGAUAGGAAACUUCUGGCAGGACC", -7.06],
  ["TTCG (dsDNA) DNA 1: GCTATCTAGTGCTCAGTACGCACTGTTCGAGGAAACTTCTGGCAGGACCAGGTCATGAGATCGGAAGAGCACACGTCTGAACTCCAGTCA DNA 2: TGACTGGAGTTCAGACGTGTGCTCTTCCGATCTCATGACCTGGTCCTGCCAGAAGTTTCCTCGAACAGTGCGTACTGAGCACTAGATAGC RNA: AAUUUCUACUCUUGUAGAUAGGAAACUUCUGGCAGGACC", -6.85]
]}
